Origin of values: ChEMBL document CHEMBL1153318

target: Serine/threonine-protein kinase pim-1 (Homo sapiens)
Sequence (P11309 whole entry): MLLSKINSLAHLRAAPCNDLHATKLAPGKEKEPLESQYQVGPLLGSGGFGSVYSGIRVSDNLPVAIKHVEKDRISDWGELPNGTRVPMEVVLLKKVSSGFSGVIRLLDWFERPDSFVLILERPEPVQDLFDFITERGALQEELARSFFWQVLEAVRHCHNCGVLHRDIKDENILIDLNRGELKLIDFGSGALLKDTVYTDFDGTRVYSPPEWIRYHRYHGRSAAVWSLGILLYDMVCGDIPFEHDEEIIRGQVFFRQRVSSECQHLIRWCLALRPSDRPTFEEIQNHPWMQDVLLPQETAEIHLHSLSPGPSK
result.type: IC50 (nM)
Your answer is read as nM, so omit the unit and give the number.

Request: Reported IC50 for CC(Oc1cc(-n2cnc3ccc(OC4CCN(C)CC4)cc32)sc1C(N)=O)c1ccccc1Cl (single isomer, unassigned) [GSK-579289A] : what is it?
Result: 310

* * *

method.description: Solubility in 0.05 M phosphate buffer at 200 uM at pH 7.4 after 15 mins by HPLC
Type: physicochemical
Kindly supply the reported solubility at 0.25 h, 200 µM values for the records listed here.
Value expressed in µM; do not type the unit.

Request: Recorded solubility at 0.25 h, 200 µM for C[C@@H](Oc1cc(-n2cnc3ccc(OC[C@H](O)CN4CCCC4)cc32)sc1C(N)=O)c1ccccc1Cl (single isomer, unassigned) , please?
Result: 170

Request: Which solubility at 0.25 h, 200 µM is listed for CC(Oc1cc(-n2cnc3ccc(OCC4CCN(C)CC4)cc32)sc1C(N)=O)c1ccccc1C(F)(F)F (single isomer, unassigned) [GSK-326090A] ?
Result: 109

Request: Consider the compound shown here: COc1ccc2ncn(-c3cc(O[C@H](C)c4ccccc4Cl)c(C(N)=O)s3)c2c1 [GSK-317314A] What is its recorded solubility at 0.25 h, 200 µM?
Result: 3

Request: For the compound CC(Oc1cc(-n2cnc3ccc(OCCCN(C)C)cc32)sc1C(N)=O)c1ccccc1Cl (single isomer, unassigned) , what solubility at 0.25 h, 200 µM is on record?
Result: 161

* * *

So I've got a bunch of compounds here, and I need their IC50 values.
target: Serine/threonine-protein kinase PLK3 (Homo sapiens)
Sequence (Q9H4B4 whole entry): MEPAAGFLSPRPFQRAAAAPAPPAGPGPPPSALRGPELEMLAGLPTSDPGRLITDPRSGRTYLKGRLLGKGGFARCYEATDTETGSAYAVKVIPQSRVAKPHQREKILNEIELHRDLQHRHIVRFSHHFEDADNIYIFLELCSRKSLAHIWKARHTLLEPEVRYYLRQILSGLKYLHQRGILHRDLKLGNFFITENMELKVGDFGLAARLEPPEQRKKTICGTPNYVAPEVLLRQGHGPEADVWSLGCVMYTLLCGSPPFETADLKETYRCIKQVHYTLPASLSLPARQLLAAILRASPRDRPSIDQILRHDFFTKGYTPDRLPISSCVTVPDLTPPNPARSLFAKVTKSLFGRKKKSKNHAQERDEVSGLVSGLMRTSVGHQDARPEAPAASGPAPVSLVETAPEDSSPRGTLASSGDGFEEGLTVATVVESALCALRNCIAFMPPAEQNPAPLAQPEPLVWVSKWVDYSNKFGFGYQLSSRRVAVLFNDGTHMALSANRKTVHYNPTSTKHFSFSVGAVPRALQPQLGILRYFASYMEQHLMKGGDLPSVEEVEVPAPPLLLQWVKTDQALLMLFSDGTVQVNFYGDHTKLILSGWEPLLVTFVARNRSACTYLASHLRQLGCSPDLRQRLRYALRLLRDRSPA
Write your answer as a measured quantity: the number, then the unit.

Request: Need IC50, item CC(Oc1cc(-n2cnc3ccc(OCC4CCN(C)CC4)cc32)sc1C(N)=O)c1ccccc1Cl (single isomer, unassigned) [GSK-571989A]
Result: 1100 nM

Request: Name the reported IC50 value associated with the compound CC(Oc1cc(-n2cnc3ccc(OCC4CCN(C)CC4)cc32)sc1C(N)=O)c1ccccc1C(F)(F)F (single isomer, unassigned) [GSK-326090A]
Result: 550 nM

Request: Value lookup for IC50; key = COc1ccc2ncn(-c3cc(O[C@H](C)c4ccccc4Cl)c(C(N)=O)s3)c2c1 [GSK-317314A]
Result: 35 nM

Request: Any idea what IC50 was measured for CC(Oc1cc(-n2cnc3ccc(OC4CCN(C)CC4)cc32)sc1C(N)=O)c1ccccc1Cl (single isomer, unassigned) [GSK-579289A] ?
Result: 630 nM

Request: Report IC50 for COc1cc2ncn(-c3cc(O[C@H](C)c4ccccc4Cl)c(C(N)=O)s3)c2cc1OC [GSK-237701A] please.
Result: 6 nM

Request: # query: IC50 of entry COc1cc2ncn(-c3cc(O[C@@H](C)c4ccccc4Cl)c(C(N)=O)s3)c2cc1OC [GSK-237700A]
Result: 44 nM

Request: Entry under review: COc1ccc2ncn(-c3cc(O[C@H](C)c4ccccc4C(F)(F)F)c(C(N)=O)s3)c2c1 [GSK-317315A] . Reported IC50?
Result: 41 nM

Request: Field request: IC50 | item: CC(Oc1cc(-n2cnc3ccc(OC[C@@H](O)CO)cc32)sc1C(N)=O)c1ccccc1Cl (single isomer, unassigned) [GSK-978744A]
Result: 61 nM

Request: Quick check: IC50 of COc1cc2ncn(-c3cc(OCc4ccccc4Cl)c(C(N)=O)s3)c2cc1OC [GW852849X] ?
Result: 9 nM
